MEASURED_ON: NAMPT (human, recombinant, C-terminally His-tagged) (Homo sapiens, UniProt P43490)
Sequence (P43490 whole entry): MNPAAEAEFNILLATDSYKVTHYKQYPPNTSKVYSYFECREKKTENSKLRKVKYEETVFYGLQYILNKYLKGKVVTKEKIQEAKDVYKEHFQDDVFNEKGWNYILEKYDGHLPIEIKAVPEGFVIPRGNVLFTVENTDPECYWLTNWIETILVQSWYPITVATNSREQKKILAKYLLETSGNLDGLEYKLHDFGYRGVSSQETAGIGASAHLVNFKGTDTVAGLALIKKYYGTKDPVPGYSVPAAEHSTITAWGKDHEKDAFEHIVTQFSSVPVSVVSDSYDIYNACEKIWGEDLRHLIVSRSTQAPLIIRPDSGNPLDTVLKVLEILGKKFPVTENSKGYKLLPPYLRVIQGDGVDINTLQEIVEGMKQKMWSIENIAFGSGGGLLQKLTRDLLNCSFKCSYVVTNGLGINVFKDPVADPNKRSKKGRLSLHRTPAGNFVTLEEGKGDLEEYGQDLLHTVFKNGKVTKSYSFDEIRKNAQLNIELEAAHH
ASSAY_OVERVIEW: Time-Resolved Fluorescence Resonance Energy Transfer (TR-FRET) Binding Assay of NAMPT
MEASUREMENT_CONTEXT: without substrates; 6.8 nM NAMPT, 200 nM probe, 3 hours equilibration
Consider the following molecules; for each one, report its pIC50.
// pIC50 is dimensionless: -log10 of concentration (M)

Inquiry: Give the reported value of pIC50 for this record: O=C(NCc1ccn2ccnc2c1)c1ccc(C2CCN(C(=O)Cc3ccccc3F)C2)s1 (stereo not drawn)
Reply text: 7.44

Inquiry: Specify pIC50 for Cn1nccc1C(=O)N1CCC(c2ccc(C(=O)NCc3ccn4ccnc4c3)cc2)CC1 and stop.
Reply text: 7.19

Inquiry: Determine its reported pIC50: O=C(NCc1ccn2ccnc2c1)c1ccc(OC2CCN(C(=O)c3ccccc3)CC2)cc1
Reply text: 5.79

Inquiry: Give pIC50 for the following molecule: O=C(NCCCCC1CCN(C(=O)CN2CCOCC2)CC1)Nc1ccc2nccn2c1
Reply text: 6.12

Inquiry: Return value of pIC50 for input O=C(NCc1ccn2ccnc2c1)Nc1ccc(C2CCN(C(=O)CC3CCOCC3)CC2)cc1 , no commentary.
Reply text: 6.96

Inquiry: Output measured pIC50 for this item: CC(C)C(C)C(=O)N1CCC(c2ccc(C(=O)NCc3ccn4ccnc4c3)cc2)CC1 (stereo not drawn)
Reply text: 7.11

Inquiry: Dear colleague, please send me the reported pIC50 for CC(C)CC(=O)N1CCC(c2ccc(C(=O)NCc3ccn4ccnc4c3)cc2)CC1 when you can.
Reply text: 6.84

Inquiry: Read the entry O=C(NCCCCC1CCN(C(=O)CCC(F)(F)F)CC1)Nc1ccc2nccn2c1 and write its reported pIC50.
Reply text: 6.11

Inquiry: Fill in reported pIC50 for this entry: O=C(NCc1ccn2ccnc2c1)Nc1ccc(O[C@@H]2CCN(C(=O)c3ccccc3)C2)cc1
Reply text: 7.51

---

MEASURED_ON: UniProtKB P43490
pIC50: −log10 of the molar value.
Think of 9 as a floor: if pIC50 stands on it or above, it is label 1; beneath it, label 0.

Inquiry: Please indicate if the recorded pIC50 for O=C(NCc1ccn2ccnc2c1)c1ccc(C2CCN(C(=O)c3ccno3)CC2)s1 meets or exceeds 9.
Reply text: label 1

Inquiry: Determine whether this compound has pIC50 no lower than 9: CC/C=C(\C)C(=O)N1CCC(c2ccc(C(=O)NCc3ccn4ccnc4c3)cc2)CC1
Reply text: label 1

Inquiry: Check this compound for pIC50 at or above 9: CC(C)CC(=O)Nc1ncc(C(=O)NCc2ccc3nccn3c2)s1
Reply text: label 0

Inquiry: Decide: is the reported value of pIC50 for CC(C)COC(=O)N1CCC(c2ccc(C(=O)NCc3ccn4ccnc4c3)s2)CC1 equal to or greater than 9?
Reply text: label 1

Inquiry: Check this compound for pIC50 at or above 9: O=C(NCc1ccn2ccnc2c1)c1ccc(C2CCN(C(=O)c3cnccn3)C2)s1 (centres unmarked)
Reply text: label 1

Inquiry: Threshold query (pIC50 >= 9) on O=C(NCc1ccn2ccnc2c1)c1ccc(-c2cnn(C[C@@H]3CCCO3)c2)o1
Reply text: label 1

Inquiry: Dear colleague, could you confirm whether Cc1nn(C)cc1CC(=O)N(CC1CCCO1)c1ncc(C(=O)NCc2ccc3nccn3c2)s1 (centres unmarked) has pIC50 at or above 9?
Reply text: label 0

Inquiry: // inclusive: pIC50 at least 9? input: O=C(NCCCCC1CCN(C(=O)CC2CC2)CC1)Nc1ccc2nccn2c1
Reply text: label 1

Inquiry: For this compound, is measured pIC50 9 or higher? N#CC1(C(=O)N2CCC(c3ccc(C(=O)NCc4ccn5ccnc5c4)cc3)CC2)CC1
Reply text: label 1

---

Provide the reported IC50 of each item.
MEASURED_ON: NAMPT (human, recombinant, C-terminally His-tagged) (Homo sapiens, UniProt P43490)
ASSAY_OVERVIEW: Time-Resolved Fluorescence Resonance Energy Transfer (TR-FRET) Binding Assay of NAMPT
MEASUREMENT_CONTEXT: without substrates; 6.8 nM NAMPT, 200 nM probe, 3 hours equilibration
Field format: number, assumed nM, no unit text.

Inquiry: Read the entry Cc1ccccc1C(=O)N1CCC(c2ccc(C(=O)NCc3ccn4ccnc4c3)cc2)C1 (centres unmarked) and write its reported IC50.
Reply text: 133

Inquiry: Consider the molecule O=C(NCc1ccn2ccnc2c1)Nc1ccc(C2CCN(C(=O)[C@H]3CCOC3)CC2)cc1 and give its recorded IC50.
Reply text: 120

Inquiry: Provide IC50 value for the following molecule: O=C(NCc1ccn2ccnc2c1)c1ccc(C2CCN(C(=O)C3CCCC3)C2)s1 (centres unmarked)
Reply text: 98.4

Inquiry: State its IC50: O=C(NCc1ccn2ccnc2c1)c1ccc(C2CCN(C(=O)C3CCOC3)CC2)cc1 (centres unmarked)
Reply text: 817

Inquiry: Please look at this molecule and report its IC50: O=C(NCc1ccn2ccnc2c1)c1ccc(C2CCN(C(=O)c3ccc(Cl)cc3)C2)cc1 (centres unmarked)
Reply text: 691

Inquiry: Provide measured IC50 value, entry: CC(C)C(=O)N1CCC(c2ncc(C(=O)NCc3ccn4ccnc4c3)s2)C1 (centres unmarked)
Reply text: 3920

Inquiry: Look up and report measured IC50 for this entry: CC(C)(O)CNC(=O)c1ccc(NC(=O)Nc2ccc3nccn3c2)cc1
Reply text: 653

Inquiry: Respond only with IC50 recorded for COCC(C)C(=O)Nc1ccc(NC(=O)Nc2ccc3nccn3c2)cc1 (centres unmarked)
Reply text: 4350

Inquiry: Recall and state the measured IC50 for CCCC(=O)N1CCC(c2ccc(C(=O)NCc3ccn4ccnc4c3)s2)C1 (centres unmarked) .
Reply text: 134

Inquiry: Name the recorded IC50 of the molecule listed here: O=C(NCc1ccc2nccn2c1)c1ccc(-c2cnn(CC3CCCCO3)c2)s1 (centres unmarked)
Reply text: 65.7

Inquiry: Look up IC50 of CN1CCC(C(=O)N2CC=C(c3ccc(NC(=O)Nc4ccc5nccn5c4)cc3)CC2)CC1 and report it.
Reply text: 356

Inquiry: For the molecule O=C(NCc1ccn2ccnc2c1)c1ccc(C2CCN(C(=O)c3cccc(C(F)(F)F)c3)CC2)cc1 , give its reported IC50.
Reply text: 568

Inquiry: Using known records, supply IC50 for CCOCC(=O)Nc1ccc(NC(=O)Nc2ccc3nccn3c2)cc1
Reply text: 814

Inquiry: Specify IC50 for COc1ccccc1C(=O)N1CCC(c2ccc(C(=O)NCc3ccn4ccnc4c3)cc2)C1 (centres unmarked) and stop.
Reply text: 236

---

MEASURED_ON: NAMPT (Homo sapiens)
Bucketed by reported IC50, buckets being bottom bin = under 0.3 nM, middle bin = from 0.3 nM up to 0.6 nM, top bin = 0.6 nM and over

Inquiry: Input CC(C)(C)C(=O)N1CCC(c2ccc(C(=O)NCc3ccn4ccnc4c3)s2)C1 (stereo not drawn) ; output its category
Reply text: middle bin

Inquiry: State the class of the compound shown: O=C(NCc1ccn2ccnc2c1)c1ccc(C2CCN(C(=O)c3ccc(F)c(F)c3)CC2)cc1
Reply text: top bin

Inquiry: Class for O=C(NCc1ccn2ccnc2c1)c1cnc(N2C(=O)OC[C@H]2COCc2ccccc2)s1 ?
Reply text: bottom bin

Inquiry: Input O=C(CCC1CCCO1)Nc1ccc(C(=O)NCc2ccn3ccnc3c2)cc1 (stereo not drawn) ; output its category
Reply text: middle bin

Inquiry: Which class is correct for the following compound? CC(C)OCC(=O)N1CCC(Oc2ccc(NC(=O)NCc3ccn4ccnc4c3)cc2)CC1
Reply text: bottom bin

Inquiry: Could you place Cn1cccc1C(=O)N1CCC(c2ccc(C(=O)NCc3ccn4ccnc4c3)s2)C1 (stereo not drawn) in its proper category? Many thanks.
Reply text: middle bin

Inquiry: Given O=C(NCCCCC1CCN(C(=O)C2CCOC2)CC1)Nc1ccc2nccn2c1 (stereo not drawn) , name the class its IC50 places it in.
Reply text: middle bin

Inquiry: Record O=C(Cc1ccc(NC(=O)CC2CCCC2)cc1)Nc1ccc2nccn2c1 — which class?
Reply text: top bin

Inquiry: Bin? O=C(NCc1ccn2ccnc2c1)Nc1ccc(-c2cnn(CC3CCCO3)c2)cc1 (stereo not drawn)
Reply text: middle bin

Inquiry: Please report the category associated with O=C(NCc1ccn2ccnc2c1)c1ccc(C2CN(S(=O)(=O)c3ccccc3)C2)cc1 , nothing else.
Reply text: top bin

Inquiry: Quick check: band for Cc1noc(C)c1C(=O)N1CCC(c2ccc(C(=O)NCc3ccn4ccnc4c3)cc2)CC1
Reply text: bottom bin

Inquiry: Which bin, given its IC50, does CC(=O)Nc1ccc(NC(=O)Nc2ccc3nccn3c2)cc1 occupy?
Reply text: top bin

Inquiry: Given O=C(NCc1ccn2ccnc2c1)Nc1ccc(C2CCN(C(=O)[C@@H]3CCOC3)CC2)cc1 , name the class its IC50 places it in.
Reply text: middle bin

Inquiry: Kindly state the category for this compound: O=C(NC1(c2ccc(C(=O)NCc3ccn4ccnc4c3)s2)COC1)c1ccccc1
Reply text: bottom bin

Inquiry: Band for CC(C)Cn1cc(-c2ccc(NC(=O)NCc3ccc4nccn4c3)cc2)cn1 ?
Reply text: bottom bin

Inquiry: Sort O=C(NCc1ccn2ccnc2c1)c1ccc(C2CCN(C(=O)c3ccccc3F)C2)cc1 (stereo not drawn) into one of the categories.
Reply text: top bin

Inquiry: Given O=C(Nc1ccc(C2=CCN(C(=O)CC3CCOC3)CC2)cc1)Nc1ccc2nccn2c1 (stereo not drawn) , name the class its IC50 places it in.
Reply text: bottom bin

Inquiry: Assign a category based on measured IC50 for O=C(Nc1ccc(C(=O)NCC2CCCCO2)cc1)Nc1ccc2nccn2c1 (stereo not drawn) and give only the class name.
Reply text: middle bin

Inquiry: // return the class label for O=C(Nc1ccc(C(=O)NCC2CCCC2)cc1)Nc1ccc2nccn2c1
Reply text: top bin

Inquiry: Any idea which band CC(C)C(=O)N1CCC(c2ccc(NC(=O)NCc3ccn4ccnc4c3)cc2)CC1 is in?
Reply text: bottom bin

Inquiry: Form field 'band' for O=C(NCc1ccn2ccnc2c1)Nc1ccc(O[C@@H]2CCN(C(=O)[C@H]3CCCO3)C2)cc1
Reply text: middle bin

Inquiry: For O=C(NCc1ccn2ccnc2c1)c1ccc(C2(O)CN(C(=O)CC3CCOCC3)C2)s1 , which IC50 bin applies?
Reply text: middle bin

Inquiry: Band for CC(C)C(=O)N1CCC(Oc2ccc(NC(=O)NCc3ccn4ccnc4c3)cc2)CC1 ?
Reply text: bottom bin

Inquiry: Given CC(=O)N1CCC(Oc2ccc(C(=O)NCc3ccn4ccnc4c3)cc2)CC1 , name the class its IC50 places it in.
Reply text: middle bin
